Reference source: patent US5767278A

target_under_test: telomerase (Homo sapiens, UniProt O14746)
Construct: placing cells, tissues, or preferably a cellular extract or other preparation containing telomerase in contact with; endogenous in cells
Sequence (O14746 whole entry): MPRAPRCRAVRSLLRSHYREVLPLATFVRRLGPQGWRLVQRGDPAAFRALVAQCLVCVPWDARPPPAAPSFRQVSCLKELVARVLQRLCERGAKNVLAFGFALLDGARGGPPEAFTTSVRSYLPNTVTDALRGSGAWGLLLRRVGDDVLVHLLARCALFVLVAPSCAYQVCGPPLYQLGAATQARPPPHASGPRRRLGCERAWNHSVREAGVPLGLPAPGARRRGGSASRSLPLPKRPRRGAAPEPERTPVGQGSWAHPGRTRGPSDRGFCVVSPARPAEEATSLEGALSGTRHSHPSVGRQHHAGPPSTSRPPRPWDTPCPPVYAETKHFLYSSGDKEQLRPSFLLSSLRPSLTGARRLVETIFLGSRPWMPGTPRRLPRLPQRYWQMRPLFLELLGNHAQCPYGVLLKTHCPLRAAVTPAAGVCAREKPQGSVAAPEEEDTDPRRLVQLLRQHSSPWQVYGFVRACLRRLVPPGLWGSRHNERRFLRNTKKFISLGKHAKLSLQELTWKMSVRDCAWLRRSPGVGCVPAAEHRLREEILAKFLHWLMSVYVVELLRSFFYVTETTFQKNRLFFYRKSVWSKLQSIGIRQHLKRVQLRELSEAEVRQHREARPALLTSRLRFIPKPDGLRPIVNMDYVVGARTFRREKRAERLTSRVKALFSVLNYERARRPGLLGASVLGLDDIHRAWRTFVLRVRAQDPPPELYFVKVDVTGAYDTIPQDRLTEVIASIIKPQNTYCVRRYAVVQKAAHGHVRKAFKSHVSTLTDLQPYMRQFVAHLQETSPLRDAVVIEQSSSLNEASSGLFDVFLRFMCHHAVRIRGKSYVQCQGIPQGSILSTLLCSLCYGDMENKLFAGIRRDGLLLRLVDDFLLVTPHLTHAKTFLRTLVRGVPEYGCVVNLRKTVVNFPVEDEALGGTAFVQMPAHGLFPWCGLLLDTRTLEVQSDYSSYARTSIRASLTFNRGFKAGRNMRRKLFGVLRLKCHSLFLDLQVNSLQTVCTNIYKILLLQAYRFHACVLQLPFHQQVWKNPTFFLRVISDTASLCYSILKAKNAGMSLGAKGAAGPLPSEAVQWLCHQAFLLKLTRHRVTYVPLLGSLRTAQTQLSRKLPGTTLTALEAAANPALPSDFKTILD
Sequence (O60832 whole entry partner): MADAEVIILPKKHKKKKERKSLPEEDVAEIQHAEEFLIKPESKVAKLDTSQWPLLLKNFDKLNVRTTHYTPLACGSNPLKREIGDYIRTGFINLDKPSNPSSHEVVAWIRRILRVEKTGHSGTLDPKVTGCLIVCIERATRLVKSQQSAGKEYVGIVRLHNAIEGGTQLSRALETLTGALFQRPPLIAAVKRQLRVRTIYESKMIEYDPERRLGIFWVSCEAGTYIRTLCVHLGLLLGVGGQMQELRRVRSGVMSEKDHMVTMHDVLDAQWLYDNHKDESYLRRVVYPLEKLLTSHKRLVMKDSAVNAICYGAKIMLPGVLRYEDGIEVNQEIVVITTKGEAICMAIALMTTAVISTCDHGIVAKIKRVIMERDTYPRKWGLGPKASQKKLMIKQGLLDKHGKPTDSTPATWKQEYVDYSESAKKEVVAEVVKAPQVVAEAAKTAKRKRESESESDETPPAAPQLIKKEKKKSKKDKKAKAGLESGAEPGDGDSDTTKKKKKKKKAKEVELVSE
Sequence (Q9NPE3 whole entry partner): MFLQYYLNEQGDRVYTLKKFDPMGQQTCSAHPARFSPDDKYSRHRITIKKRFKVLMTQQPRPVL
Sequence (Q9NX24 whole entry partner): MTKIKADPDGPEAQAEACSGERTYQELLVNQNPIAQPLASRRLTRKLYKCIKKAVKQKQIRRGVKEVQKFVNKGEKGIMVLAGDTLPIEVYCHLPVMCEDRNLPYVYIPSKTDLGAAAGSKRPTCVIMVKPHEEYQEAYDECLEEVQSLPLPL
Sequence (Q9NY12 whole entry partner): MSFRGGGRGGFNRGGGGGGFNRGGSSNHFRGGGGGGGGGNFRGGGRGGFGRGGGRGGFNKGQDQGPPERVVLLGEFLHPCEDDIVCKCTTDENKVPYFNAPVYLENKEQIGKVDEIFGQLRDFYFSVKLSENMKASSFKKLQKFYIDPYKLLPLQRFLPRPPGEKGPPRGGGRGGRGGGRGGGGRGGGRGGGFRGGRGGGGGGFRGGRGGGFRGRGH
protocol_details: Inhibition of telomerase activity (IC50)
Format: biochemical
settings: Table 3; only approximate values
measurement_name: IC50 (µM)

Examples with their reported IC50 follow.
Cc1ccnc(N=Cc2ccc(C#N)c(SCc3ccc(Cl)c(Cl)c3)n2)c1 | 8
N#Cc1ccc(C=NNC(=S)Nc2ccc(F)cc2)nc1SCc1ccc(Cl)c(Cl)c1 | 18
Cc1nc(N=Cc2ccc(C#N)c(SCc3ccc(Cl)c(Cl)c3)n2)ccc1Br | 7
Cc1cccnc1N=Cc1ccc(C#N)c(SCc2c(Cl)cccc2Cl)n1 | 1
Cc1cccnc1N=Cc1ccc(C#N)c(SCc2ccccc2Br)n1 | 2

1. CCN1C(=O)c2ccc(N=Cc3ccc(C#N)c(SCc4ccc(Cl)c(Cl)c4)n3)cc2C1=O
2. Cc1ccc(NC(=S)NN=Cc2ccc(C#N)c(SCc3ccc(Cl)c(Cl)c3)n2)cc1
3. COc1ccc(N=Cc2ccc(C#N)c(SCc3ccc(Cl)c(Cl)c3)n2)cc1
Arrange by IC50, high to low. Labels, ranked as asked.
2, 1, 3

a. N#Cc1ccc(C=Nc2ccc(Br)c(C(F)(F)F)c2)nc1SCc1ccc(Cl)c(Cl)c1
b. N#Cc1ccc(C=NNc2ccc(Cl)cc2)nc1SCc1ccc(Cl)c(Cl)c1
c. Cc1ccc(N=Cc2ccc(C#N)c(SCc3ccc(Cl)c(Cl)c3)n2)nc1
d. Cc1cccnc1N=Cc1ccc(C#N)c(SCc2cc(C(F)(F)F)cc(C(F)(F)F)c2)n1
e. Cc1cccnc1N=Cc1ccc(C#N)c(SCc2cc(Cl)cc3c2OCOC3)n1
Arrange by IC50, high to low. Labels, ranked as asked.
b, a, c, e, d

###

target_under_test: telomerase (Homo sapiens, UniProt O14746)
Construct: placing cells, tissues, or preferably a cellular extract or other preparation containing telomerase in contact with; endogenous in cells
protocol_details: Inhibition of telomerase activity (IC50)
Format: biochemical
settings: Table 3; only approximate values
pIC50: −log10 of the molar value.
measurement_name: pIC50

Examples with their reported pIC50 follow.
Cc1cccnc1N=Cc1ccc(C#N)c(SCc2cccc(Cl)c2F)n1 | 5.70
N#Cc1ccc(N=Cc2ccc(C#N)c(SCc3ccc(Cl)c(Cl)c3)n2)cc1Cl | 5.00

A. Cc1cccnc1N=Cc1ccc(C#N)c(SCc2ccc(C(C)C)cc2)n1
B. Cc1ccc(NN=Cc2ccc(C#N)c(SCc3ccc(Cl)c(Cl)c3)n2)cc1
C. Cc1cccnc1N=Cc1ccc(C#N)c(SCc2ccc(C(F)(F)F)cc2C(F)(F)F)n1
Arrange by pIC50, high to low. Labels, ranked as asked.
A, C, B

###

target_under_test: telomerase (Homo sapiens)
Construct: placing cells, tissues, or preferably a cellular extract or other preparation containing telomerase in contact with; endogenous in cells
protocol_details: Inhibition of telomerase activity (IC50)
Format: biochemical
settings: Table 3; only approximate values
Experimental: One method used to identify compounds of the invention that inhibit telomerase activity involves placing cells, tissues, or preferably a cellular extract or other preparation containing telomerase in contact with several known concentrations of a test compound in a buffer compatible with telomerase activity. […] With the above-described methods, IC50 values for several of the compounds of the present invention were determined. […]
measurement_name: IC50 (µM)

Examples with their reported IC50 follow.
N#Cc1ccc(C=Nc2ccc3c(c2)OCCO3)nc1SCc1ccc(Cl)c(Cl)c1 | 10
Cc1cccnc1N=Cc1ccc(C#N)c(SCc2ccc(C(C)(C)C)cc2)n1 | 2

1. COc1ccc(N=Cc2ccc(C#N)c(SCc3ccc(Cl)s3)n2)nc1
2. Cc1cccnc1N=Cc1ccc(C#N)c(SCc2ccccc2-c2ccccc2)n1
Quick one: lower IC50, 1 or 2 ? # reply format: chosen label
2
(2: 2 µM, 1: 5 µM)
